Biological target: mouse FL5.12 cells transfected with Bcl-xL (Homo sapiens, UniProt Q07817)
Sequence (Q07817 whole entry, change not shown): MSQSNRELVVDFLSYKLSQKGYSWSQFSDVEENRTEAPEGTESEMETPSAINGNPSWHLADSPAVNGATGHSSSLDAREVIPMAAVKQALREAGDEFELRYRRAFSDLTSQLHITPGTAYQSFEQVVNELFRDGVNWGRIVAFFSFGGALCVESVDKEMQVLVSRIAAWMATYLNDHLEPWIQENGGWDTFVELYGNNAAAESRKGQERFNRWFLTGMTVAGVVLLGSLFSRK
Assay: FL5.12 cellular assay (cell viability, CellTiter-Glo)
Conditions: IL-3-depleted, 3% FBS assay media, 24 hours; read-out: FL5.12 Bcl-xL, −IL3, EC50
pEC50: −log10 of the molar value.
Measured pEC50 by item
Measurement Type: pEC50

* Cc1cc(OCC23CC4CC(CC(C4)C2)C3)ccc1-c1ccc(N2CCc3cccc(C(=O)Nc4nc5ccccc5s4)c3C2)nc1C(=O)O | < 6.00
* Cc1nn(CC23CC4CC(CC(C4)C2)C3)c(C)c1-c1ccc(N2CCc3cccc(C(=O)Nc4nc5ccccc5s4)c3C2)nc1C(=O)O | > 9.00
* O=C(Nc1nc2ccccc2s1)c1cccc2c1CN(c1ccc(-c3cccc(OCC45CC6CC(CC(C6)C4)C5)c3)c(C(=O)O)n1)CC2 | < 6.00
* Cc1c(-c2ccc(N3CCc4cccc(C(=O)Nc5nc6ccccc6s5)c4C3)nc2C(=O)O)cc(C#N)n1CC12CC3CC(CC(C3)C1)C2 | > 9.00
